Catalogue of growth inhibition readings, one per entry.
# experiment: NCI Yeast Anticancer Drug Screen. Data for the cln2 rad14 strain (AID 165);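 further: 0% = growth equal to vehicle treated cultures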
# measurement_setup: S. cerevisiae cln2 rad14 strain, at 50.0 µM, stronger effect = higher value
About 79,000 compounds went through this panel and 15% of them were active in at least one assay; those are over-represented in the sample as a whole. Activity calls are given as the source filed them. No stated cut-off is given here; in the data, active means growth inhibition above about 70%; inactive means the rest.
parameter: growth inhibition

{"columns": ["compound", "value"],
 "data": [
  ["CCCCOC(=O)c1ccc(O)cc1.[Zn+2]", "-41.9% (inactive)"],
  ["CCOC(=O)CC(C)C(Br)(C(=O)OCC)C(=O)OCC (configuration not stated)", "20.5% (inactive)"],
  ["C/C(C#CC1=CCCCC1)=N\\Nc1ccc([N+](=O)[O-])cc1[N+](=O)[O-]", "-4.3% (inactive)"],
  ["CCc1nc(N)nc(N)c1-c1ccc2c(c1)nnn2C", "-9.75% (inactive)"],
  ["CC(=O)Oc1cccc2c(/C=N/NC(N)=S)ncc(C)c12", "83.5% (active)"],
  ["N#CC(NC12CC3CC(CC(C3)C1)C2)c1ccc2c(c1)OCO2 (configuration not stated)", "-17.1% (inactive)"],
  ["Oc1ccc(C2SCc3nc4ccccc4n32)cc1 (configuration not stated)", "-7.3% (inactive)"],
  ["OC(c1ccncc1)(c1ccc(Cl)cc1)c1cccs1 (configuration not stated)", "-5.2% (inactive)"],
  ["CCOC(=O)c1ccc(OC(=O)Nc2ccccc2)cc1", "-12.4% (inactive)"],
  ["Nc1ccc(S(=O)(=O)/N=C(\\NS(=O)(=O)c2ccc(N)cc2)c2ccccc2)cc1", "16.2% (inactive)"],
  ["CCCCc1ccc(N=Nc2ccccc2)cc1", "-59% (inactive)"],
  ["CC(=O)NNC(=O)c1ccccc1CO", "10.4% (inactive)"]
]}

These entries and their values trace back to PubChem BioAssay (NCI).
